// cross-source set; read-out = pIC50; system = Cytochrome P450 2C19 (Homo sapiens, UniProt P33261)
pIC50: −log10 of the molar value.

smiles_notation	pIC50
NS(=O)(=O)N1CCC(C(=O)/C(=N/O)Nc2ccc(F)c(Br)c2)CC1	< 5.00
Cc1cc(N2CC[C@H](N3CCC[C@H]3C)C2)ccc1NC(=O)c1cc(F)ccc1C	< 4.52
COc1ccc2c(c1)[C@]1(C[C@H]1c1ccc3c(/C=C/c4ccc(N5CCN(C)CC5)nc4)n[nH]c3c1)C(=O)N2	5.82
CC(=O)N[C@@H]1C[C@H](NC(C)(C)C)CC[C@@H]1N1CC[C@H](Nc2ncnc3ccc(C(F)(F)F)cc23)C1=O	< 4.40
CC(=O)N[C@@H](C)/C=C/c1ccc(Oc2cc3sc(C)nc3cc2Cl)nc1	< 4.70
Nc1ncc(-c2cn(C34CC(F)(C3)C4)c([C@@H](O)C(F)(F)F)n2)cc1OC(F)(F)F	< 5.00
C[C@H](c1ccc(Cl)cc1Cl)n1nc(C#N)c2ncc(N3CC([C@H]4CCCN(CCO)C4)C3)nc21	< 4.40
Oc1ccc2[nH]c(-c3ccccc3)nc2c1CN1CCCCC1	< 4.52
CN(Cc1c2c(=O)n(-c3ccccc3Cl)[nH]c2cc(=O)n1Cc1ccncc1)c1ccccc1	5.19
CNC(=O)[C@@]12C[C@@H]1[C@@H](n1cnc3c(NCCc4ccc(OC)c(O)c4)nc(OCC(C)C)nc31)[C@H](O)[C@@H]2O	< 4.52
Cc1c(-c2ccccc2)nn(-c2nc(C(=O)O)cs2)c1-c1ccccc1	5.33
CCN/C(=N\S(=O)(=O)c1cccc(Cl)c1)N1CC(C)(C)C=N1	< 5.00
C[C@H](CN1CCC[C@@H]1C)NC(=O)c1ccc(-c2noc(C(F)(F)F)n2)cc1	< 4.30
N#Cc1cc(OC(F)(F)F)cc(-c2nc(-c3ccc4c(c3)CCN4C(=O)CCC(=O)O)no2)c1	< 4.30
Nc1nc2ccc(C(=O)NCc3ccccc3N)cc2s1	< 4.60
COc1ccc(CN2CCN(c3ccc(NC(=O)c4cc(OC)c(OC)cc4NC(=O)c4cnc5ccccc5c4)cc3)CC2)cc1OC	6.41
Cc1nc2cn(Cc3ccccc3)cc2c(-c2ccc(Cl)cc2Cl)c1CN	6.02
CCc1c(CCN2CCC(C(=O)O)CC2)cccc1-c1nsc(-c2ccc(OC(C)C)c(Cl)c2)n1	< 5.00
COC[C@H](O)Cn1c(=O)cnn(-c2ccc(Cl)c(C(=O)NCC3(O)CCCCCC3)c2)c1=O	< 4.52
C[C@@H]1CCCN1CCCOc1ccc(C2=NNC(=O)CC2)cc1	< 4.52

----------
Literature-derived IC50 for Cytochrome P450 2C19 (Homo sapiens, UniProt P33261) follows.
measured_metric: IC50

compound	measured_metric	result
CN1CCN(C(=O)c2ccc3ccc(C(=O)c4ccccc4)c-3cc2)CC1	IC50	> 50 µM
CC1(C)CN2C(CS/C(=N\C3CCCCC3)NC3CCCCC3)=CSC2=N1	IC50	5.2 µM
Nc1nc2ccc(SCc3ccc(C(=O)NCc4ccccc4)cc3)cc2s1	IC50	< 10 µM
Cl.NC/C(=C\F)[C@H]1Cc2ccccc2O1	IC50	> 10 µM
c1cn2cc(-c3ccc4cn[nH]c4c3)nc(Nc3ccc(N4CCOCC4)cc3)c2n1	IC50	> 10 µM
C[C@H]1CNC(=O)c2cnn3ccc(nc23)N[C@H](C)c2cc(F)ccc2O1	IC50	12.3 µM
CC(C)c1nc(CN(C)C(=O)N[C@H](C(=O)N[C@H](CC[C@H](Cc2ccccc2)NC(=O)OCc2cncs2)Cc2ccccc2)C(C)C)cs1	IC50	9.3 µM
Cc1ccc(-c2ccc3c(c2)CC(NS(=O)(=O)C(C)C)C3)nc1 (centres undefined)	IC50	> 10 µM
C[C@@H]1CCCN1CCCOc1ccc(-c2cnn(-c3ccccn3)c(=O)c2)cc1	IC50	> 30 µM
CC(C)S(=O)(=O)NC1Cc2ccc(-c3cncc(C#N)c3)cc2C1 (centres undefined)	IC50	> 10 µM
COc1ccc(-c2ccc(Oc3cccc4c3CCCC4)c(NC(=O)Nc3ccccc3C)c2)cc1C(=O)O	IC50	> 3 µM
CC(=O)N[C@@H](C)/C=C/c1cnc(Oc2ccc(OCC3CC3)cc2Cl)n1C	IC50	> 20 µM
O=C(Nc1c[nH]nc1-c1nc2ccc(CN3CCOCC3)cc2[nH]1)NC1CC1	IC50	> 10 µM
O=C(O)CCC(=O)N1CCc2cc(-c3noc(-c4cc(C(F)(F)F)cc(C(F)(F)F)c4)n3)ccc21	IC50	> 50 µM
